The reader will find reported Half-cell potential values listed item by item below.
assay: Cyclic voltammetry of manganese complexes (Mn(III)/Mn(II) redox couple); type: physicochemical; settings: pH 7.4, vs. normal hydrogen electrode (NHE)
measurement type: Half-cell potential (mV)

compound: O=C([O-])CN(CCN(CC(=O)[O-])Cc1ccccc1[O-])CC(=O)[O-].[Mn+2].[Na+].[Na+] [Compound 4, Na2[Mn^IIHBET]]
reported value: 379
--
compound: COc1ccc([O-])c(CN(CCN(CC(=O)[O-])CC(=O)[O-])CC(=O)[O-])c1.[Mn+2].[Na+].[Na+] [Compound 9, Na2[Mn^IIHBET-OMe]]
reported value: 344
--
compound: O=C([O-])CN(CC(=O)[O-])C1CCCCC1N(CC(=O)[O-])Cc1ccccc1[O-].[Mn+3].[Na+] (centres unmarked) [Compound 21, Na[Mn^IIIcycHBET]]
reported value: 365
--
compound: O=C([O-])CN(CCN(CC(=O)[O-])Cc1cc([N+](=O)[O-])ccc1[O-])CC(=O)[O-].[Mn+3].[Na+] [Compound 14, Na[Mn^IIIHBET-NO2]]
reported value: 476
--
compound: O=C([O-])CN(CC(=O)[O-])C1CCCCC1N(CC(=O)[O-])Cc1cc([N+](=O)[O-])ccc1[O-].[Mn+3].[Na+] (centres unmarked) [Compound 31, Na[Mn^IIIcycHBET-NO2]]
reported value: 488

----------
assay: T1 relaxivity (r1) measurement at 1.4 T, 37° C., TRIS buffer pH 7.4; assay type: physicochemical; conditions: pH 7.4, 37° C., 1.4 Tesla, TRIS buffer
Quick reference: r1 (relaxivity) of the listed items.

compound: O=C([O-])CN(CCN(CC(=O)[O-])Cc1ccccc1[O-])CC(=O)[O-].[Mn+3].[Na+] [Compound 5, Na[Mn^IIIHBET]]
r1 (relaxivity) (mM⁻¹ s⁻¹): 1.05
//
compound: O=C([O-])CN(CCN(CC(=O)[O-])Cc1cc([N+](=O)[O-])ccc1[O-])CC(=O)[O-].[Mn+2].[Na+].[Na+] [Compound 13, Na2[Mn^IIHBET-NO2]]
r1 (relaxivity) (mM⁻¹ s⁻¹): 2.28
//
compound: COc1ccc([O-])c(CN(CCN(CC(=O)[O-])CC(=O)[O-])CC(=O)[O-])c1.[Mn+2].[Na+].[Na+] [Compound 9, Na2[Mn^IIHBET-OMe]]
r1 (relaxivity) (mM⁻¹ s⁻¹): 3.11
//
compound: O=C([O-])CN(CCN(CC(=O)[O-])Cc1ccccc1[O-])CC(=O)[O-].[Mn+2].[Na+].[Na+] [Compound 4, Na2[Mn^IIHBET]]
r1 (relaxivity) (mM⁻¹ s⁻¹): 2.76
//
compound: O=C([O-])CN(CC(=O)[O-])C1CCCCC1N(CC(=O)[O-])Cc1ccccc1[O-].[Mn+3].[Na+] (centres unmarked) [Compound 21, Na[Mn^IIIcycHBET]]
r1 (relaxivity) (mM⁻¹ s⁻¹): 1.56
//
compound: O=C([O-])CN(CCN(CC(=O)[O-])Cc1cc([N+](=O)[O-])ccc1[O-])CC(=O)[O-].[Mn+3].[Na+] [Compound 14, Na[Mn^IIIHBET-NO2]]
r1 (relaxivity) (mM⁻¹ s⁻¹): 0.34
//
compound: O=C([O-])CN(CC(=O)[O-])C1CCCCC1N(CC(=O)[O-])Cc1cc([N+](=O)[O-])ccc1[O-].[Mn+2].[Na+].[Na+] (centres unmarked) [Compound 30, Na2[Mn^IIcycHBET-NO2)]]
r1 (relaxivity) (mM⁻¹ s⁻¹): 2.30
//
compound: O=C([O-])CN(CC(=O)[O-])C1CCCCC1N(CC(=O)[O-])Cc1ccccc1[O-].[Mn+2].[Na+].[Na+] (racemic) [Compound 20, Na2[Mn^IIcycHBET]]
r1 (relaxivity) (mM⁻¹ s⁻¹): 3.26
